From: patent US20120264735A1

Target: c-Met kinase (recombinant c-Met) (Homo sapiens)
Construct: 0.27 nM recombinant c-Met
Assay: In vitro kinase assay I (homogeneous time-resolved fluorescence tyrosine kinase assay)
pIC50: −log10 of the molar value. Counter-ions that a name gives are not always drawn.
pIC50 values, listed per item
recorded-endpoint: pIC50

>>> result("Cn1cc(-n2ccc(=O)c(Cc3cccc(NC(=O)OCC4CCCCC4)c3)n2)cn1 [Example 540]")
"> 7.00"
>>> result("Cn1cc(-n2ccc(=O)c(Cc3cccc(-c4ncc(NC(=O)CC5CCOCC5)cn4)c3)n2)cn1 [Example 459]")
"> 7.00"
>>> result("CCOc1cnc(-c2cccc(Cc3nn(-c4ccc(C(=O)NCC(C)(C)O)c(F)c4)ccc3=O)c2)nc1 [Example 724]")
"> 7.00"
>>> result("Cn1cc(-n2ccc(=O)c(Cc3cccc(-c4ncc(OCC(O)c5ccncc5)cn4)c3)n2)cn1 (racemic) [Example 367]")
"> 7.00"
>>> result("COc1cnc(-c2cccc(Cc3nn(-c4cnn(C)c4)ccc3=O)c2)nc1 [Example 5]")
"> 7.00"
>>> result("CCOc1cnc(-c2cccc(Sc3nn(-c4cnn(C)c4)ccc3=O)c2)nc1 [Example 756]")
"5.52 to 6.00"
>>> result("CC(C)COC(=O)Nc1cccc(Cc2nn(-c3cnn(C4CCOCC4)c3)ccc2=O)c1 [Example 90]")
"6.00 to 7.00"
>>> result("Cn1cc(-n2ccc(=O)c(Cc3cccc(-c4nc[nH]n4)c3)n2)cn1 [Example 186, hydrochloride]")
"> 7.00"

* * *

Target: c-Met kinase (recombinant c-Met) (Homo sapiens, UniProt P08581)
Construct: 0.27 nM recombinant c-Met
Sequence (P08581 25-1390): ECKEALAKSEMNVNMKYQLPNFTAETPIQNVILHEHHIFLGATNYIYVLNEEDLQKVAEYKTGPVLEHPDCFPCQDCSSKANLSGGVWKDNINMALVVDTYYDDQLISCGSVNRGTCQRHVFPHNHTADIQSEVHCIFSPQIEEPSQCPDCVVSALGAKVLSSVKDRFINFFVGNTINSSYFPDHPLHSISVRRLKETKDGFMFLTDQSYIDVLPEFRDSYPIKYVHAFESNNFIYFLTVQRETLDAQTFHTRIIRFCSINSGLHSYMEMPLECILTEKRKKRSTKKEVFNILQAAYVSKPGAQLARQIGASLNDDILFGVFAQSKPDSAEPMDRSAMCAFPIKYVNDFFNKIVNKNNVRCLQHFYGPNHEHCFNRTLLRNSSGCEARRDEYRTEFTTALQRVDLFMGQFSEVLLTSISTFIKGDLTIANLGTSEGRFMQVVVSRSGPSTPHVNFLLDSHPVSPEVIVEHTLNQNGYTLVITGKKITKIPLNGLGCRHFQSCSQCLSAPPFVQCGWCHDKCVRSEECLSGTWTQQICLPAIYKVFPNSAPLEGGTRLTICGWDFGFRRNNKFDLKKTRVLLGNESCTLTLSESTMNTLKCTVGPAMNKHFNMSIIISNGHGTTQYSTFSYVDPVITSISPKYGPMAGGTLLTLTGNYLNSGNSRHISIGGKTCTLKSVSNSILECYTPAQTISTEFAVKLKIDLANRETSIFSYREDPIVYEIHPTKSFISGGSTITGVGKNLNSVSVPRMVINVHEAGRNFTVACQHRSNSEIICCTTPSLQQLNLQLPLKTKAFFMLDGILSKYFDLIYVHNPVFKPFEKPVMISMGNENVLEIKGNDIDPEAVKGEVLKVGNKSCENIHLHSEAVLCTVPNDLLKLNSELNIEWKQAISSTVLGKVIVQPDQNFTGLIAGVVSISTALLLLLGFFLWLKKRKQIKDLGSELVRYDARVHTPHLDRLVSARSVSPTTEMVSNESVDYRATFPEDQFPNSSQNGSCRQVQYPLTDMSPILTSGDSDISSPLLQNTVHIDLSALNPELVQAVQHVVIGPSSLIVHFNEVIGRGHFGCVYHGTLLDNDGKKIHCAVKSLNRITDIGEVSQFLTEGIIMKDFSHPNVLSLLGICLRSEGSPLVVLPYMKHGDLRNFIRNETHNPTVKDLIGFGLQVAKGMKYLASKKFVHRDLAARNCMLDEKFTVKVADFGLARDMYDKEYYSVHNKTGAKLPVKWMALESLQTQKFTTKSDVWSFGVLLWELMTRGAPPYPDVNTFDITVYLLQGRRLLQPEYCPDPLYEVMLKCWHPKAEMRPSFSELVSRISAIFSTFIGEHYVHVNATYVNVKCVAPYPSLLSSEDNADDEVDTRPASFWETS
Experiment: In vitro kinase assay I (homogeneous time-resolved fluorescence tyrosine kinase assay)
recorded-endpoint: IC50

>>> result("Cn1cc(-n2ccc(=O)c(Cc3cccc(-c4ncc(OCc5noc(C6CC6)n5)cn4)c3)n2)cn1")
"< 0.1 µM"
>>> result("Cc1nnc(-c2cccc(Cc3nn(-c4cnn(C)c4)ccc3=O)c2)s1")
"1 to 3 µM"
>>> result("Cn1cc(-n2ccc(=O)c(Cc3cccc(-c4ncc(OCC5COCCO5)cn4)c3)n2)cn1 (single isomer, unassigned) [Example 347]")
"< 0.1 µM"
>>> result("CCC(C)COC(=O)Nc1cccc(Cc2nn(-c3cnn(C)c3)ccc2=O)c1 (racemic)")
"< 0.1 µM"

* * *

# pIC50 listing for each entry below
Target: c-Met kinase (recombinant c-Met) (Homo sapiens)
Construct: 0.27 nM recombinant c-Met
Test: In vitro kinase assay I (homogeneous time-resolved fluorescence tyrosine kinase assay)
Assay type: biochemical
pIC50: −log10 of the molar value.
recorded-endpoint: pIC50

>>> result("CCOc1cnc(-c2cc(Cc3nn(-c4cnn(C)c4)ccc3=O)ccc2F)nc1")
"6.00 to 7.00"
>>> result("Cn1cc(-n2ccc(=O)c(Cc3cccc(-c4ncc(C(C)(C)O)cn4)c3)n2)cn1")
"> 7.00"
>>> result("CC(C)c1cnc(-c2cccc(Cc3nn(-c4cnn(C)c4)ccc3=O)c2)nc1")
"> 7.00"
>>> result("CN(C)C(=O)COc1cnc(-c2cccc(Cc3nn(-c4cnn(C)c4)ccc3=O)c2)nc1")
"> 7.00"
>>> result("COC(C)(C)c1cnc(-c2cccc(Cc3nn(-c4cnn(C)c4)ccc3=O)c2)nc1")
"6.00 to 7.00"
>>> result("Cn1cc(-n2ccc(=O)c(Cc3cccc(NC(=O)Cc4ccccc4)c3)n2)cn1")
"5.52 to 6.00"
>>> result("O=C(Nc1cccc(Cc2nn(-c3cc(F)cc(F)c3)ccc2=O)c1)OCCOCC(F)(F)F")
"> 7.00"
>>> result("O=C(Nc1cccc(Cc2nn(-c3ccc(F)c(F)c3)ccc2=O)c1)OCC1CCOCC1")
"> 7.00"
>>> result("CCCC(c1cccc(-c2ncc(OCC)cn2)c1)c1nn(-c2cnn(C)c2)ccc1=O (single isomer, unassigned) [Example 207]")
"6.00 to 7.00"
>>> result("COCCOc1cnc(-c2cccc(Cc3nn(-c4cc(F)cc(F)c4)ccc3=O)c2)nc1")
"> 7.00"
>>> result("O=C(Nc1cccc(Cc2nn(-c3cc(F)cc(F)c3)ccc2=O)c1)OCCN1CCCC1=O")
"> 7.00"
>>> result("COCCOC(=O)Nc1cccc(Cc2nn(-c3cc(F)cc(F)c3)ccc2=O)c1")
"> 7.00"
>>> result("CCOc1cnc(-c2cccc(Cc3nn(-c4cnn(C)c4)ccc3=O)c2)nc1")
"> 7.00"
>>> result("Cn1cc(-n2ccc(=O)c(Cc3cccc(-c4ncc(OCCN5CCOCC5)cn4)c3)n2)cn1")
"> 7.00"
>>> result("CCn1cc(-n2ccc(=O)c(C(C)c3cccc(-c4ncc(O)cn4)c3)n2)cn1 (single isomer, unassigned) [Example 257]")
"5.52 to 6.00"
>>> result("CCc1cnc(-c2cccc(C(C)c3nn(-c4ccc(F)c(F)c4)ccc3=O)c2)nc1 (single isomer, unassigned) [Example 231]")
"> 7.00"
>>> result("CCn1cc(-n2ccc(=O)c(C(C)c3cccc(-c4ncc(OCCn5cccn5)cn4)c3)n2)cn1 (single isomer, unassigned)")
"> 7.00"
>>> result("CCOC(=O)Nc1cccc(Cc2nn(-c3cnn(C)c3)ccc2=O)c1")
"> 7.00"
>>> result("CCOC(=O)Nc1cccc(Cc2nn(-c3cccc(C#N)c3)ccc2=O)c1")
"> 7.00"
>>> result("CCOc1cnc(-c2cccc(Cc3nn(-c4cnn(C)c4)ccc3=O)c2)nc1CC")
"> 7.00"
>>> result("CC(c1cccc(-c2ncc(OCC(C)(C)O)cn2)c1)c1nn(-c2cnn(C)c2)ccc1=O (single isomer, unassigned) [Example 381]")
"> 7.00"
>>> result("O=C(Nc1cccc(Cc2nn(-c3cc(F)c(F)c(F)c3)ccc2=O)c1)OCCCN1CCCC1=O")
"> 7.00"
>>> result("CCOc1cnc(-c2cccc(C(CC)c3nn(-c4cnn(C)c4)ccc3=O)c2)nc1 (single isomer, unassigned) [Example 206]")
"> 7.00"
>>> result("Cn1cc(-n2ccc(=O)c(Cc3cccc(-c4ncc(Cc5ccccc5)cn4)c3)n2)cn1")
"> 7.00"
>>> result("O=c1ccn(-c2ccc(F)c(F)c2)nc1Cc1cccc(-c2ncc(OCC3(O)CCOCC3)cn2)c1")
"> 7.00"
>>> result("COCCOc1cnc(-c2cccc(Cc3nn(-c4cnn(C)c4)ccc3=O)c2)nc1")
"> 7.00"
>>> result("Cn1cc(-n2ccc(=O)c(Cc3cccc4c3CNC4=O)n2)cn1")
"5.52 to 6.00"
>>> result("CC(C)COC(=O)Nc1cccc(Cc2nn(-c3cnn(CCC(=O)N4CCOCC4)c3)ccc2=O)c1")
"> 7.00"
>>> result("CCOc1cnc(-c2cccc(C(CCC#N)c3nn(-c4cn[nH]c4)ccc3=O)c2)nc1 (racemic)")
"6.00 to 7.00"
>>> result("CCn1cnc(-c2cccc(Cc3nn(-c4cccc(C(N)=O)c4)ccc3=O)c2)n1")
"> 7.00"
>>> result("Cn1cc(-n2ccc(=O)c(Cc3cccc(-c4ncc(C5CCCO5)cn4)c3)n2)cn1 (racemic)")
"> 7.00"

* * *

Biological target: c-Met kinase (recombinant c-Met) (Homo sapiens)
Construct: 0.27 nM recombinant c-Met
Experiment: In vitro kinase assay I (homogeneous time-resolved fluorescence tyrosine kinase assay)
pIC50: −log10 of the molar value.
The reader will find reported pIC50 values listed item by item below.
recorded-endpoint: pIC50

>>> result("O=c1ccn(-c2cn[nH]c2)nc1Cc1cccc(-c2ncc(O)cn2)c1 [Example 194]")
"6.00 to 7.00"
>>> result("CCCOC(=O)Nc1cccc(Cc2nn(-c3cccnc3)ccc2=O)c1 [Example 28]")
"> 7.00"
>>> result("CCCn1cc(-n2ccc(=O)c(Cc3cccc(NC(=O)OCCN4CCOCC4)c3)n2)cn1 [Example 117]")
"> 7.00"
>>> result("CCCOC(=O)Nc1cccc(Cc2nn(-c3cnn(C)c3)ccc2=O)c1 [Example 52]")
"> 7.00"
>>> result("CC1COCCN1c1cnc(-c2cccc(Cc3nn(-c4cnn(C)c4)ccc3=O)c2)nc1 (racemic) [Example 450]")
"> 7.00"
>>> result("CCn1cc(-n2ccc(=O)c(C(C)c3cccc(-c4ncc(OCC5(F)CCNCC5)cn4)c3)n2)cn1 (single isomer, unassigned) [Example 338]")
"> 7.00"
>>> result("CCOc1cnc(-c2cccc(Cc3nn(-c4cccc(C(N)=O)c4)ccc3=O)c2)nc1 [Example 736]")
"> 7.00"
>>> result("COCCCOC(=O)Nc1cccc(Cc2nn(-c3cnn(C)c3)ccc2=O)c1 [Example 575]")
"> 7.00"
>>> result("CCn1cc(-n2ccc(=O)c(C(C)c3cccc(-c4ncc(OCC5CCO5)cn4)c3)n2)cn1 (single isomer, unassigned) [Example 296]")
"> 7.00"
>>> result("Cn1cc(-n2ccc(=O)c(Cc3cccc(NC(=O)OCC4CCC4)c3)n2)cn1 [Example 538]")
"> 7.00"
>>> result("Cn1cc(-n2ccc(=O)c(Cc3cccc(-c4ncc(OCC5(CF)COC5)cn4)c3)n2)cn1 [Example 387]")
"> 7.00"
>>> result("Cn1cc(-n2ccc(=O)c(Cc3cccc(NC(=O)OC[C@H]4CCCN4)c3)n2)cn1 [Example 615]")
"6.00 to 7.00"
>>> result("CCn1cc(-n2ccc(=O)c(C(C)c3cccc(-c4ncc(OCCOC)cn4)c3)n2)cn1 (single isomer, unassigned) [Example 247]")
"6.00 to 7.00"
>>> result("CCn1cc(-n2ccc(=O)c(C(C)c3cccc(-c4ncc(-c5cnn(C)c5)cn4)c3)n2)cn1 (single isomer, unassigned) [Example 234]")
"> 7.00"
>>> result("O=C(Nc1cccc(Cc2nn(-c3cc(F)c(F)c(F)c3)ccc2=O)c1)OCCN1CCS(=O)(=O)CC1 [Example 515]")
"> 7.00"
>>> result("Cn1cc(-n2ccc(=O)c(Cc3cccc(-c4ncn(CCC#N)n4)c3)n2)cn1 [Example 709]")
"6.00 to 7.00"
>>> result("CCCCNC(=O)Nc1cccc(Cc2nn(-c3cnn(C)c3)ccc2=O)c1 [Example 494]")
"> 7.00"
>>> result("Cn1cc(-n2ccc(=O)c(Cc3cccc(-c4ncc(-c5ccco5)cn4)c3)n2)cn1 [Example 404]")
"> 7.00"
>>> result("Cn1cc(-n2ccc(=O)c(Cc3cccc(-c4ncc(OCC(C)(C)O)cn4)c3)n2)cn1 [Example 358]")
"> 7.00"
>>> result("CCOC(=O)Nc1cccc(Cc2nn(-c3cnn(CC(C)C)c3)ccc2=O)c1 [Example 92]")
"6.00 to 7.00"
>>> result("Cn1cc(-n2ccc(=O)c(Cc3cccc(NC(=O)OCC4CC(C)(C)OC(C)(C)C4)c3)n2)cn1 [Example 609]")
"> 7.00"
>>> result("Cn1cc(-n2ccc(=O)c(Cc3cccc(NC(=O)OCCN4CCNCC4)c3)n2)cn1 [Example 625]")
"> 7.00"
>>> result("CCn1cc(-n2ccc(=O)c(C(C)c3cccc(-c4ncc(OCCN5CCOCC5)cn4)c3)n2)cn1 (single isomer, unassigned) [Example 300]")
"> 7.00"
>>> result("O=C1CN(CCOC(=O)Nc2cccc(Cc3nn(-c4ccc(F)c(F)c4)ccc3=O)c2)CCN1 [Example 529]")
"> 7.00"
>>> result("CN1CCN(CCOC(=O)Nc2cccc(Cc3nn(-c4cnn(C)c4)ccc3=O)c2)CC1 [Example 530]")
"> 7.00"
>>> result("CCn1cc(-n2ccc(=O)c(C(C)c3cccc(-c4ncc(OCC5CCNCC5)cn4)c3)n2)cn1 (single isomer, unassigned) [Example 339]")
"> 7.00"
>>> result("CC(C)COC(=O)Nc1cccc(Cc2nn(-c3cnn(C)c3)ccc2=O)c1 [Example 53]")
"> 7.00"
>>> result("N#Cc1cncc(-n2ccc(=O)c(Cc3cccc(NC(=O)OCC4CCOC4)c3)n2)c1 (racemic) [Example 130]")
"> 7.00"
>>> result("CCOc1cnc(-c2cccc(C(CC)c3nn(-c4cnn(C)c4)ccc3=O)c2)nc1 (single isomer, unassigned) [Example 205]")
"6.00 to 7.00"
>>> result("CCOc1cnc(-c2cccc(C(C)c3nn(-c4cnn(CCO)c4)ccc3=O)c2)nc1 (single isomer, unassigned) [Example 256]")
"> 7.00"
